- assay.overview: GST conjugation activity with CDNB (HPLC)
- Type: biochemical
- assay.context: 0.4 mM electrophilic substrate, 4 mM glutathione, 0.1 M MOPS pH 7.0, corrected for uncatalyzed reaction
Criterion: Activity of soybean GST enzyme, CDNB meeting or surpassing 2000 nmol/min/mg. Met: Fulfilled. Not met: Not fulfilled.

>  <molecule>
ses8w.pk0028.c6: soybean type III GST encoded by cDNA insert in clone ses8w.pk0028.c6 (protein) MAANQEDVKLLGATGSPFVCRVQIALKLKGVQYKFLEENLRNKSELLLKSNPVHKKVPVFIHNEKPIAESLVIVEYIDETWKNNPILPSDPYQRALARFWSKFIDDKVVGAAWKYIYTVDEKEREKNVEESYEALQFLENELKDKKFFGGEEIGLVDIAAVFIAFWIPIIQEVLGLKLFTSEKFPKLYKWSQEFINHPVVKQVLPPRDQLFAFYKACHESLSASK

>  <assigned.class>
Not fulfilled

$$$$
>  <molecule>
se6.pk0048.d7: soybean type III GST encoded by cDNA insert in clone se6.pk0048.d7 (protein) MADEVVLLDFWPSPFGMRVRIALAEKGIKYESKEEDLQNKSPLLLKMNPVHKKIPVLIHNGKPICESLVAVQYIEEVWNDRNPLLPSDPYQRAQARFWADFVDNKIFDLGRKIWTSKGEEKEAAKKEFIEALKLLEEQLGDKTYFGGDDLGFVDIALIPFDTWFKTFGSLNIESECPKFVAWAKRCLQKDSVAKSLPDQHKVYEFIMDIRKKFDIE

>  <assigned.class>
Not fulfilled

$$$$
>  <molecule>
ssl.pk0002.f7: soybean type III GST encoded by cDNA insert in clone ss1.pk0002.f7 (protein) MADGVVLLDTWASMFGMRVRIALAEKGVEYEYKEENLRNKSPLLLQMNPIHKKIPVLIHNGKPICESAIIVQYIDEVWNDKAPILPSDPYERAQARFWVDYIDKKVYDTWRKMWLSKGEEHEAGKKEFISIFKQLEETLSDKAYYGSDTFGFLDIGLIPFYSWFYTFETYGNFKMEEECPKLVAWAKRCMQREAVSKSLS

>  <assigned.class>
Fulfilled

$$$$
>  <molecule>
GST-A: soybean type III GST encoded by cDNA insert in clone GSTa (protein) MSDEVVLLDFWPSPFGMRVRIALAEKGIKYEYKEEDLRNKSPLLLQMNPVHKKIPVLIHNGKPICESLIAVQYIEEVWNDRNPLLPSDPYQRAQTRFWADYVDKKIYDLGRKIWTSKGEEKEAAKKEFIEALKLLEEQLGDKTYFGGDNLGFVDIALVPFYTWFKAYETFGTLNIEECPKFIAWAKRCLQKESVAKSLPDQQKVYEFIMDLRKKLGIE

>  <assigned.class>
Not fulfilled

$$$$

Turning now to a further molecule:
Input line: Threshold query (Activity of soybean GST enzyme, CDNB >= 2000 nmol/min/mg) on se1.pk0017.f5: soybean type IV GST encoded by cDNA insert in clone se1.pk0017.f5 (protein) MASLGVRPVLPPPLTSISDPPPLFDGTTRLYISYSCPYAQRVWIARNYKGLQDKINLVPINLQDRPAWYKEKVYPENKVPSLEHNGKVLGESLDLIKYVDANFEGTPLFPSDPAKKEFGEQLISHVDTFSKDLFVSLKGDAVQQASPAFEYLENALGKFDDGPFLLGQFSLVDIAYIPFVERFQIVFAEVFKHDITEGRPKLATWFEELNKLNAYTETRVDPQEIVDLFKKRFLPQQ
Output line: Not fulfilled
